- Tested on: BT-549 breast
- Experimental Protocol: NCI-60 one-dose screen, 48 h (100 = growth as untreated, 0 = no growth, -100 = all killed)
- Applied Conditions: 10 µM
This is part of a sample that, as a whole, favours compounds with a hit. Of some 83,000 tested, about 20% had one in any assay.
Measured Property: growth (%)
Express it in %; write the number only.

O=C(CCCC(=O)N/N=C/c1cc(Cl)ccc1O)N/N=C\c1cc(Cl)ccc1O | 29.2
CCCCCC(=O)N1c2ccccc2NC2=C(C(=O)CC(c3ccc(OC)c(OC)c3)C2)C1c1ccc(C(F)(F)F)cc1 (stereo unspecified) | 75.9
COC(=O)c1cnc2c(c1)Oc1ccccc1-c1ccnn1-2 | 102
CCc1ccc(-c2nnc(COc3ccc(-c4nc5ccccc5[nH]4)cc3OC)o2)cc1 | 51.7
N#C/C(=C/c1cc([N+](=O)[O-])ccc1Cl)C(N)=O | 96.8
N#CC1C=Cc2c(ccc3ccccc23)N1C(=O)c1ccccc1 (stereo unspecified) | 33.5
OC(CNC1CCCC1)Cn1c2ccccc2c2ccccc21 (stereo unspecified) | 53.8
CC(=O)OC1Oc2ccccc2-c2oc(=O)c(-c3cc(=O)oc4cc(O)ccc34)cc21 (stereo unspecified) | 61.4
Nc1ccc(C2=CC(c3ccc(Cl)cc3)N3C=CSC3=N2)cc1 (stereo unspecified) | -50.7
Oc1ccc(/C=N\Nc2ccccn2)c(O)c1 | 23.7

Determine from records and report growth for C=CCn1ccc(=O)nc1SC
105

Determine from records and report growth for C[C@]12CC[C@H]3[C@@H](CC=C4C[C@@H](O)CC[C@@]43C)[C@@H]1CC[C@@H]2C(=O)C/C=N/O
90.2

Determine from records and report growth for COc1ccc(-c2cc(/C=C3\C(=O)Nc4cc(Cl)ccc43)[nH]n2)cc1OC
80.1

Determine from records and report growth for COc1cc(CSc2nc3ccc(C)cc3c(=O)n2Cc2ccccc2)cc(OC)c1OC
34.8

Determine from records and report growth for Clc1cc(Cl)c(Cl)c(-c2nc(-c3cccnc3)cs2)c1
98.3

Determine from records and report growth for O=NN(CCCl)C(=O)NCc1ccc(-c2ccc(CNC(=O)N(CCCl)N=O)cc2)cc1
86.6

Determine from records and report growth for C/C(=N\NC(N)=S)C(C)(C)O
104

Determine from records and report growth for O=C(OCc1ncc(-c2ccc(C(F)(F)F)cc2)c(NC2CCCCCC2)n1)c1c(F)c(F)c(F)c(F)c1F
67.8

Determine from records and report growth for COc1ccc(-c2csc(-c3cc(Cl)cc(Cl)c3Cl)n2)cc1
102

Determine from records and report growth for CCCCn1c(=O)[nH]c2c(c1=O)C(c1ccc(Cl)cc1)c1c([nH]c(=O)n(CCCC)c1=O)N2
100

Determine from records and report growth for Cc1ccc2nc(-c3ccc(OCC(=O)N=Nc4c(O)[nH]c5ccccc45)cc3)[nH]c2c1
109

----------
- Test system: MCF7 breast
- Experimental Protocol: NCI-60 one-dose screen, 48 h
- Applied Conditions: 10 µM
This is part of a sample that, as a whole, favours compounds with a hit. Of some 83,000 tested, about 20% had one in any assay. Activity calls are given as the source filed them. The calls were made as follows: active = growth percent below 10; inactive = the rest.
Choose one outcome from this list and give only that: active, inactive

Consider the worked cases shown below.
N=C(N)c1ccc(-c2ccc(-c3cccs3)s2)nc1 | inactive
CC(C)C[C@H](NC(=O)Cn1ccc2ccccc2c1=O)B(O)O | inactive
CCCCCC(=O)N1c2ccccc2NC2=C(C(=O)CC(c3ccc(OC)c(OC)c3)C2)C1c1ccc(C(F)(F)F)cc1 (centres undefined) | inactive

# outcome recorded in this test, key = CC(=O)Oc1c(C)c(C)c2c(c1C)CCC(C)(CC(=O)OCCCCCCCCCCC[P+](c1ccccc1)(c1ccccc1)c1ccccc1)O2 (centres undefined)
active

# outcome recorded in this test, key = COc1cc(-c2cc(-c3ccc(C)cc3)nc3nc(N)[nH]c(=O)c23)ccc1Oc1ccnc2cc(Cl)ccc12
inactive

----------
- System: RXF 393 renal
- Experimental Protocol: NCI-60 one-dose screen, 48 h (100 = growth as untreated, 0 = no growth, -100 = all killed)
- Applied Conditions: 10 µM
This is part of a sample that, as a whole, favours compounds with a hit. Of some 83,000 tested, about 20% had one in any assay.
Give satisfied when the value for growth is at least 70%. Give not satisfied when it is less.

Consider the worked cases shown below.
CC1(CO)CCCC12OCCO2 (stereo unspecified) | satisfied
CCOC(=O)C(=O)Cc1cccnn1 | satisfied
Cc1nn2c(/C=C3/C(=O)Nc4ccc(Cl)cc43)c(-c3ccccc3)nc2s1 | not satisfied
Cc1ccc([P+](Cc2ccc([N+](=O)[O-])cc2)(c2ccc(C)cc2)c2ccc(C)cc2)cc1 | not satisfied

hey, is growth for this one >= 70%? COc1cc(CSc2nc3ccc(C)cc3c(=O)n2-c2ccccc2)cc(OC)c1OC
not satisfied

hey, is growth for this one >= 70%? CCOc1cc(Br)c(C(C)NC(=O)c2cccc(OC)c2)cc1OCC (stereo unspecified)
not satisfied

----------
- Tested on: NCI/ADR-RES ovarian
- Experimental Protocol: NCI-60 one-dose screen, 48 h (100 = growth as untreated, 0 = no growth, -100 = all killed)
- Applied Conditions: 10 µM
Compounds without any hit were thinned out: in the full panel of roughly 83,000, 20% have a hit.
Measured Property: growth (%)
Express it in %; write the number only.

Nc1ccc2c(c1)Cc1cc(N)c(Cl)cc1-2 | 107
CCOC(=O)c1cc2c(n1Cc1cc(OC)cc(OC)c1)-c1oncc1CC2 | 0.862
N/C(=N\O)c1cn(C2OC(CO)C(O)C2O)c2ncnc(N)c12 (centres undefined) | 4.77
CCOC(=O)c1cc(-c2ccccc2)nc(N)n1 | 100
COc1ccc(CCc2nc3cc(-c4c(C)noc4C)ccc3n2CCN2CCOCC2)cc1 | 57.1
CCOC(=S)Sc1ccc([N+](=O)[O-])cc1[N+](=O)[O-] | 102
CCCCCCCOc1cccc(/C=C2/C(=O)N=C3SCCCN32)c1 | 56.8
C#CCn1c(-c2cccc(OCCCCl)c2)nc2c1c(=O)n(C)c(=O)n2C | 66.1

Identify measured growth obtained with NCI/ADR-RES ovarian for CC(Oc1ccc(Cl)cc1)c1ccccc1 (centres undefined) .
103

Identify measured growth obtained with NCI/ADR-RES ovarian for CCSc1nc2c([nH]1)c(=O)n(C)c(=S)n2C .
105

Identify measured growth obtained with NCI/ADR-RES ovarian for Cc1ccc(S(=O)(=O)N2CCc3ccccc3CC2)cc1 .
69.8

Identify measured growth obtained with NCI/ADR-RES ovarian for COc1cccc(-c2nnc(COc3ccc(-c4nc5ccc(C)cc5[nH]4)cc3OC)o2)c1 .
76.8

Identify measured growth obtained with NCI/ADR-RES ovarian for COc1ccc(C(=O)c2sc3nc(-c4cccs4)ccc3c2N)cc1OC .
37.8

Identify measured growth obtained with NCI/ADR-RES ovarian for CC(C)/C=N/NC(N)=S .
75

----------
Listed below: growth values for each entry.
- System: SK-OV-3 ovarian
- Experimental Protocol: NCI-60 one-dose screen, 48 h (100 = growth as untreated, 0 = no growth, -100 = all killed)
- Applied Conditions: 10 µM
This is part of a sample that, as a whole, favours compounds with a hit. Of some 83,000 tested, about 20% had one in any assay.
Express it in %; write the number only.

Record excerpt, results attached:
N#C/C(=C\N1C(=O)/C(=C/c2cccc([N+](=O)[O-])c2)SC1=S)c1nc2ccccc2s1 | 77.7
COc1ccc(-c2nnc(N3CCN(C(=O)CN4CCN(c5ccc(Cl)cc5)CC4)CC3)nc2-c2ccc(OC)cc2)cc1 | 102
O=CNc1c(Cl)cc2c(c1Cl)Cc1cc([N+](=O)[O-])ccc1-2 | 68
COc1cc(-c2nc(-c3nnc(-c4cccnc4)o3)c3ccccn23)cc(OC)c1OC | 108

// next item, growth requested
Identify measured growth obtained with SK-OV-3 ovarian for CCOC(=O)c1c(C(F)(F)F)n([O-])c2ccc(OC)cc2[n+]1=O .
23.8

----------
- Tested on: NCI-H460 lung
- Experimental Protocol: NCI-60 one-dose screen, 48 h (100 = growth as untreated, 0 = no growth, -100 = all killed)
- Applied Conditions: 10 µM
About 83,000 compounds went through this panel and 20% of them were active in at least one assay; those are over-represented in the sample as a whole.
Listed below: growth values for each entry.
Express it in %; write the number only.

Determine from records and report growth for O=S(=O)(O)C1(O)CCCCC1
48

Determine from records and report growth for Cc1[nH]nc2c(=S)[nH]c(=O)[nH]c12
105

Determine from records and report growth for O=C(N/N=C/c1ccccc1O)c1ccccc1
9.53

Determine from records and report growth for COc1cc(-c2cc(-c3cc(OC)c(OC)c(OC)c3)nc3nc(N)[nH]c(=O)c23)ccc1Oc1ccnc2cc(Cl)ccc12
13.8

Determine from records and report growth for O=S(=O)(NCl)c1ccccc1
105

Determine from records and report growth for COc1ccc(CCc2nc3cc(-c4c(C)noc4C)ccc3n2CCN2CCOCC2)cc1
30.4

Determine from records and report growth for CCCCCCCCCCCCc1ccc(C(=O)/C=C/C(=O)O)cc1
94.2

Determine from records and report growth for CCN(CCCNC(=O)Cc1cc(=O)oc2cc(N(C)C)ccc12)CCNc1ccnc2cc(Cl)ccc12
92.3

Determine from records and report growth for CC(CNC(Cc1ccccc1)c1ccccc1)NC(Cc1ccccc1)c1ccccc1 (stereo not given)
8.03

Determine from records and report growth for COC(=O)[C@]12CC[C@@H](C)[C@H](C)[C@@H]1C1=CC[C@@H]3[C@@]4(C)CC(=O)[C@H](O)[C@@]5(C)COC(=C45)C[C@@]3(C)[C@]1(C)CC2
-51.8

Determine from records and report growth for Fc1cc(-c2ncc(-c3cc(F)c(F)c(F)c3)c(NC3CCCCCC3)n2)cc(F)c1F
102

Determine from records and report growth for N=C(N)c1ccc(-c2ccc(-c3ccccc3)s2)cc1F
-79.5

Determine from records and report growth for CCN1CCN(c2ccc(Nc3ncnc4c3nnn4CCc3cc(OC)cc(OC)c3)cc2)CC1
106
